test system: U251 CNS; test: NCI-60 one-dose screen, 48 h (100 = growth as untreated, 0 = no growth, -100 = all killed); details: 10 µM unless noted
Compounds without any hit were thinned out: in the full panel of roughly 83,000, 20% have a hit.
Categories are defined by ranges of growth, namely low range = under -30%, mid range = from -30% up to 50%, high range = 50% and over

{"columns": ["COMPOUND", "CATEGORY_LABEL"],
 "data": [
  ["Cc1cc(N2CCOCC2)nc(N(CCCNc2ccnc3cc(Cl)ccc23)Cc2ccc3c(c2)OCO3)n1", "low range"],
  ["CC(Cc1cccc2ccccc12)C(N)=O (stereo not given)", "high range"],
  ["CN1CCN(Cc2ccc(NC(=O)c3cncc(C#Cc4c(N)ncc5ccccc45)c3)cc2C(F)(F)F)CC1", "low range"],
  ["Cc1nn(C)c2ncnc(Nc3ccccc3Br)c12", "high range"],
  ["Cn1ncc(CC(=O)O)c1-n1nnc2cc(Cl)ccc2c1=O", "high range"],
  ["O=C(/C=C/c1ccc(Cl)cc1)c1ccc(Nc2ccnc3cc(Cl)ccc23)cc1", "high range"],
  ["C=C1C(=O)O[C@H]2[C@H]1CC/C(CNC(=O)/C=C/c1cc(OC)c(OC)c(OC)c1)=C\\CC[C@@]1(C)O[C@@H]21", "mid range"],
  ["COc1ccc(/C=C/C(=O)c2ccc(-n3cc(CN4CCN(c5cc6c(cc5F)c(=O)c(C(=O)O)cn6C5CC5)CC4)nn3)cc2)cc1", "mid range"],
  ["N#C/C(=C/C=C/c1ccccc1)S(=O)c1ccccc1 (stereo not given)", "low range"]
]}

* * *

tested on: SNB-19 CNS; test: NCI-60 one-dose screen, 48 h (100 = growth as untreated, 0 = no growth, -100 = all killed); conditions: 10 µM unless noted
The panel holds about 83,000 compounds, 20% with a hit somewhere; the sample as a whole holds those more often.
Assign class by growth: not lower than 80% means Yes; lower than 80% means No.

{"columns": ["COMPOUND", "CATEGORY_LABEL"],
 "data": [
  ["C=CN(C(=O)N1CCN(c2cc3c(cc2F)c(=O)c(C(=O)O)cn3C2CC2)CC1)c1nc(-c2ccc(C)cc2)cs1", "No"],
  ["Cc1ccc(-c2nn(CC(=O)N3CCOCC3)c(N)c2C#N)cc1", "Yes"],
  ["Nc1ncc(-c2ccc3ncnc(N4CCc5cc(F)c(Cl)cc54)c3c2)cc1C=O", "No"],
  ["CC1=C(C(=O)c2ccccc2)C(c2ccc3c(c2)OCO3)NC(=S)N1 (centres undefined)", "No"],
  ["Cn1cc(-c2nc(-c3c[nH]c4c(Cl)nccc34)cs2)c2ccccc21", "Yes"],
  ["CCCCCCCCOC(=O)c1c(C)[nH]c(/C=C2\\N=C(c3ccc[nH]3)C=C2OC)c1C", "No"],
  ["O=C(/C=C/c1cccc([N+](=O)[O-])c1)c1ccc(Nc2nc(Nc3ccc(F)cc3)nc(Nc3ccc(Cl)cc3)n2)cc1", "Yes"],
  ["Cc1cccc(C)c1NC(=O)Nc1ccccc1", "Yes"],
  ["COc1ccccc1-c1nc2ccc3[nH]ncc3c2c2c1CCCC2", "Yes"],
  ["Cn1cc(-c2csc(-c3cn(C)c4ccc(F)cc34)n2)c2cnccc21", "No"],
  ["COc1cc(OCc2cccc(-c3ccc4c(c3)OCCO4)c2C)cc(OC)c1C=O", "No"],
  ["COc1cccc(C2C(C#N)=C(N)Oc3c2ccc2ccccc32)c1 (centres undefined)", "No"],
  ["Cc1ccc(C(F)(F)F)cc1N1CCN(C(=O)[C@H]2C[C@H]2c2ccc(C(F)(F)F)nc2)CC1", "Yes"],
  ["Cc1ccc(Nc2cc(N)nc(N)n2)cc1", "Yes"],
  ["Nc1ncc(-c2ccc3ncnc(N4CCc5ccc(Cl)cc54)c3c2)cn1", "No"],
  ["O=C1CCC(C(=O)N/N=C/c2ccc([N+](=O)[O-])cc2)N1 (centres undefined)", "Yes"],
  ["Cn1ccnc1C(=O)/C=C/c1ccc(C(=O)Nc2ccccc2F)cc1", "No"]
]}

* * *

system: HOP-62 NSCLC; assay: NCI-60 one-dose screen, 48 h (100 = growth as untreated, 0 = no growth, -100 = all killed); conditions: 10 µM unless noted
This is part of a sample that, as a whole, favours compounds with a hit. Of some 83,000 tested, about 20% had one in any assay.
Below is a list of entries, each paired with its recorded growth value.

{"columns": ["COMPOUND", "QUANTITY_UNIT", "growth"],
 "data": [
  ["CC1=C2[C@@H](CC1)[C@]1(C)O[C@@](C(C)C)(C[C@H]1OC(=O)CO)[C@H]2OC(=O)CCCc1ccccc1", "%", 39.5],
  ["CC1=C(C(=O)c2ccccc2)C(c2ccc3c(c2)OCO3)NC(=S)N1 (stereo unspecified)", "%", 51.8],
  ["Cn1ccnc1C(=O)/C=C/c1ccc(C(=O)Nc2ccccc2F)cc1", "%", 3.72],
  ["COc1cc2cc(Oc3ccc(NC(=O)Nc4ccc(F)c(C(F)(F)F)c4)cc3)c(C)nc2cc1OCCN1CCCCC1", "%", 95.4],
  ["CCOC(=O)C1=C(c2ccccc2)N=C2SC=C(c3cccc([N+](=O)[O-])c3)N2C1c1ccc(O)cc1 (stereo unspecified)", "%", 98.6],
  ["Cc1cccc(C)c1NC(=O)Nc1ccccc1", "%", 95.8],
  ["[2H]C([2H])([2H])Oc1ccc(/C=C/C(=O)/C=C(/C=C/c2ccc(OC([2H])([2H])[2H])c(OC([2H])([2H])[2H])c2OC([2H])([2H])[2H])OB(F)F)c(OC([2H])([2H])[2H])c1OC([2H])([2H])[2H]", "%", 85.7],
  ["COc1ccc(C2=C/C(=C\\c3ccccc3O)C(=O)N2Cc2ccccc2)cc1", "%", 89.7],
  ["CCOC(=O)C1=CCC(n2cc(F)c(=O)[nH]c2=O)O1 (stereo unspecified)", "%", 122],
  ["COC(=O)c1ccc(-n2cc(CCCOS(=O)(=O)c3ccc(F)cc3)nn2)cc1", "%", 106],
  ["COC(=O)CCc1c(/C=C2\\N=C(c3ccc[nH]3)C=C2OC)[nH]c(C)c1C(=O)OCc1ccccc1", "%", -3.97]
]}

* * *

tested on: SK-MEL-28 melanoma; assay: NCI-60 one-dose screen, 48 h (100 = growth as untreated, 0 = no growth, -100 = all killed); details: 10 µM unless noted
The panel holds about 83,000 compounds, 20% with a hit somewhere; the sample as a whole holds those more often.
PARAMETER_MEASURED: growth (%)

{"columns": ["COMPOUND", "TARGET_OR_SYSTEM", "NUMERIC_RESULT"],
 "data": [
  ["COC(=O)[C@@H](Cc1c[nH]c2ccccc12)NC(=O)[C@H](Cc1ccccc1)NCc1ccncc1", "SK-MEL-28 melanoma", 122],
  ["CC(C)=CCC[C@](C)(O)C1CC[C@]2(C)[C@@H]1CC[C@@H]1[C@@]3(C)CC/C(=N\\OCCC#N)C(C)(C)[C@@H]3CC[C@]12C (some centres undefined)", "SK-MEL-28 melanoma", 94.1],
  ["COc1ccc(S(=O)(=O)Oc2ccc(-c3sc4cc(OS(=O)(=O)c5ccc(OC)cc5)ccc4c3C(=O)c3ccc(OCCN4CCCCC4)cc3)cc2)cc1", "SK-MEL-28 melanoma", 103],
  ["COc1ccc2c(c1)C(c1c[nH]c3ccccc13)(c1c[nH]c3ccccc13)CCO2", "SK-MEL-28 melanoma", 54.2]
]}

* * *

system: HOP-92 NSCLC; experiment: NCI-60 one-dose screen, 48 h (100 = growth as untreated, 0 = no growth, -100 = all killed); details: 10 µM unless noted
This is part of a sample that, as a whole, favours compounds with a hit. Of some 83,000 tested, about 20% had one in any assay.
Below is a list of entries, each paired with its recorded growth value.

{"columns": ["COMPOUND", "QUANTITY_UNIT", "growth"],
 "data": [
  ["C=CCNc1nc(O)c(/C=C2\\C=Nc3ncccc32)s1", "%", -1.86],
  ["Cn1cc(-c2csc(-c3cn(C)c4ccc(F)cc34)n2)c2cnccc21", "%", 70.8],
  ["Cc1nc2cccc(NCc3ccc(C(=O)NO)cc3)c2c(=O)n1-c1ccccc1", "%", 15.3],
  ["Cc1nc2sc(C(=O)Nc3ccccc3)c(N)c2cc1C(O)c1ccccc1 (centres undefined)", "%", 63.7]
]}

* * *

tested on: SNB-75 CNS; experiment: NCI-60 one-dose screen, 48 h (100 = growth as untreated, 0 = no growth, -100 = all killed); settings: 10 µM unless noted
This is part of a sample that, as a whole, favours compounds with a hit. Of some 83,000 tested, about 20% had one in any assay.
Assign class by growth: not lower than 70% means yes; lower than 70% means no.

{"columns": ["MOLECULE", "CATEGORY_LABEL"],
 "data": [
  ["C#CCOc1cccc(Nc2ncnc3c(NC(=O)CCl)cccc23)c1", "yes"],
  ["CC(C)n1cc(C2=C(c3cccc4ccccc34)C(=O)NC2=O)c2cc(Br)ccc21", "no"],
  ["CCN(CC)CCN1C(=O)c2c(c(C)c3c(oc4cc(OC)ccc43)c2C)C1=O", "yes"],
  ["O=C(CN1C(=O)NC2NC(=O)NC21)N/N=C/c1cccc([N+](=O)[O-])c1 (configuration not stated)", "yes"],
  ["C1=C2CCCC3=Cc4ccccc4OC23Oc2ccccc21", "no"],
  ["CC(C)c1nc(N(C)S(C)(=O)=O)nc(-c2ccc(F)cc2)c1/C=C/C(=O)C[C@@H](O)CC(=O)O", "yes"],
  ["COc1ccc(/C=C\\c2cc(OC)c(OC)c(OC)c2)cc1OCC(=O)Nc1nc2ccccc2s1", "no"]
]}
